- Tested on: ARO
- method: Cytotoxicity against human Aro cells by MTT assay
- Type: functional, cell-based
// reported pIC50 per item
Worth noting: pIC50 values are minus log10 of concentrations stated in mol/L.

Reference set (3 entries):
- compound: "Oc1cc(-c2cccs2)nc2ccc3[nH]ccc3c12"
  experimentalReadout: "pIC50"
  measValue: 5.15
- compound: "N#Cc1ccc(-c2cc(O)c3c(ccc4[nH]ccc43)n2)cc1"
  experimentalReadout: "pIC50"
  measValue: 4.40
- compound: "O=[N+]([O-])c1cccc(-c2cc(O)c3c(ccc4[nH]ccc43)n2)c1"
  experimentalReadout: "pIC50"
  measValue: 4.41

Please report pIC50 for the following compound: CC[C@]1(O)C[C@H]2CN(CCc3c([nH]c4ccccc34)[C@@](C(=O)OC)(c3cc4c(cc3OC)N(C=O)[C@H]3[C@@](O)(C(=O)OC)[C@H](OC(C)=O)[C@]5(CC)C=CCN6CC[C@]43[C@@H]65)C2)C1 [VINCRISTINE] 10.00

Supply measured pIC50 of `CCN(CC)CCn1ccc2c3c(O)cc(-c4ccccc4)nc3ccc21` in your reply. 4.70

Quote pIC50 reported for `Nc1cccc(-c2cc(O)c3c(ccc4[nH]ccc43)n2)c1` please. 4.52

Output pIC50 of `N#Cc1cccc(-c2cc(O)c3c(ccc4[nH]ccc43)n2)c1` 5.52

----------
Below: a set of entries, each annotated with reported IC50.
- Tested on: ARO
- method: Cytotoxicity against human Aro cells by MTT assay
- Format: functional, cell-based
Your answer is read as µM, so omit the unit and give the number.

// below: answered compounds
- smilesRepresentation: "O=c1cc(-c2ccccc2)[nH]c2ccc3[nH]ccc3c12"
  IC50, µM: 0.7
- smilesRepresentation: "Oc1cc(-c2cccc(Br)c2)nc2ccc3[nH]ccc3c12"
  IC50, µM: 5

Note IC50 for the compound shown: `Cc1cccc(-c2cc(O)c3c(ccc4[nH]ccc43)n2)c1` 7

----------
- Tested on: A549
- method: Cytotoxicity against human A549 cells by MTT assay
- Type: functional, cell-based
Lab note: anything with IC50 below 6 µM is marked 1.0; values at 6 µM or higher are marked 0.0.

- smilesRepresentation: "N#Cc1cccc(-c2cc(O)c3c(ccc4[nH]ccc43)n2)c1"
  classLabel: 0.0

Could you please tell me whether IC50 recorded for `Nc1cccc(-c2cc(O)c3c(ccc4[nH]ccc43)n2)c1` is less than 6 µM? 0.0

API: query returns whether the compound falls strictly under 6 µM in IC50. Query: `Oc1cc(-c2cccs2)nc2ccc3[nH]ccc3c12` 0.0

Report whether reported IC50 is lower than 6 µM (strictly) for `O=c1cc(-c2ccccc2)[nH]c2ccc3[nH]ccc3c12` 1.0

Determine if `CCN(CC)CCn1ccc2c3c(O)cc(-c4ccccc4)nc3ccc21` shows IC50 strictly lower than 6 µM. 0.0

Is IC50 of `COc1cccc(-c2cc(O)c3c(ccc4[nH]ccc43)n2)c1` strictly below 6 µM? 1.0

Say whether its IC50 is strictly beneath 6 µM. Entry: `Cc1cc(O)c2c(ccc3[nH]ccc32)n1` 0.0

----------
- Tested on: NCI-H295R
- method: Cytotoxicity against human H295R cells by MTT assay
- Format: functional, cell-based
experimentalReadout: IC50 (µM)
Respond with the bare value in µM.

Below: 4 molecules and their reported IC50.
- smilesRepresentation: "N#Cc1ccc(-c2cc(O)c3c(ccc4[nH]ccc43)n2)cc1"
  measValue: 30
- smilesRepresentation: "O=[N+]([O-])c1cccc(-c2cc(O)c3c(ccc4[nH]ccc43)n2)c1"
  measValue: 40
- smilesRepresentation: "CC(=O)O[C@H]1C(=O)[C@@]2(C)[C@H]([C@H](OC(=O)c3ccccc3)[C@]3(O)C[C@H](OC(=O)[C@H](O)[C@@H](NC(=O)c4ccccc4)c4ccccc4)C(C)=C1C3(C)C)[C@]1(OC(C)=O)CO[C@@H]1C[C@@H]2O"
  measValue: 0.08
- smilesRepresentation: "COc1cccc(-c2cc(O)c3c(ccc4[nH]ccc43)n2)c1"
  measValue: 0.7

With those in mind, consider the next molecule.
Could you please provide reported IC50 for `Cc1cccc(-c2cc(O)c3c(ccc4[nH]ccc43)n2)c1` ? Thanks! 8

----------
- Test system: NCI-H295R
- method: Cytotoxicity against human H295R cells by MTT assay
- Type: functional, cell-based
pIC50: −log10 of the molar value.
experimentalReadout: pIC50

- smilesRepresentation: "Cc1cc(O)c2c(ccc3[nH]ccc32)n1"
  systemName: "NCI-H295R"
  measValue: "< 4.30"

Determine its reported pIC50: `COC(=O)c1cc2c([nH]1)c(OC)cc1nc(-c3ccccc3)cc(O)c12` < 4.30

Supply pIC50 value. Item: `Oc1ccnc2ccc3[nH]ccc3c12` < 4.30
